The sequences listed here are annotated with their binding signal.
Target: MBP-FoxP1dN (Mus musculus, UniProt P58462 326-579)
Sequence: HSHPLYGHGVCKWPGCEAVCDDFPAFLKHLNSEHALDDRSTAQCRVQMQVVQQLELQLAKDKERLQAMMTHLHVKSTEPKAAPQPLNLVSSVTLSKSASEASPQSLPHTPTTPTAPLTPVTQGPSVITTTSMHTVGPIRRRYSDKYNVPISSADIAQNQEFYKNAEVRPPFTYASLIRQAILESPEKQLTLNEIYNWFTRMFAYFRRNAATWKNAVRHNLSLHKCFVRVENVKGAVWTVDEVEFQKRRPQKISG
Assay: PD-seq (MBP pull-down with sequencing); 20 mM Tris-HCl pH 7.5, 100 mM NaCl, 1.5 mM MgCl2, 0.4 uM protein, 0.1 uM dsDNA library, 30 min, room temperature, amylose pull-down; high values mean tight binding
Conditions: protein: recombinant; tags: His6-MBP; chain copies: 2; dsDNA, one strand shown
Whole data set: some 16,000 sequences, median “rpm ratio (pull-down/input)” near 0.94, cut for the highest 2% near 1.7. This excerpt belongs to a sample that is enriched for the highest values.

Example cases with answers are listed next.
GATGATTGTTCTCCCAGCTGATGAATTCCGAGATTCGAGTAAACAAATTTTCCTAATCTTTCTGTTCAAGCGCCATCTAC 0.799 RPM ratio (pull-down/input)
GATGATTGTTCTCCCAGCTGATGAATTTATGCAGTCGAGTAAACAAATTTTCCTAATCTTTCTGTTCAAGCGCCATCTAC 1.11 RPM ratio (pull-down/input)

In the following, a different sequence is considered.
// returns reported binding signal for input GATGATTGTTCTCCCAGCTGATGAATTTGCGATCTCGAGTAAACAAATTTTCCTAATCTTTCTGTTCAAGCGCCATCTAC
0.924 RPM ratio (pull-down/input)

###

The sequences listed here are annotated with their binding signal.
Molecular target: MBP-FoxP1dN (Mus musculus, UniProt P58462 326-579)
Sequence: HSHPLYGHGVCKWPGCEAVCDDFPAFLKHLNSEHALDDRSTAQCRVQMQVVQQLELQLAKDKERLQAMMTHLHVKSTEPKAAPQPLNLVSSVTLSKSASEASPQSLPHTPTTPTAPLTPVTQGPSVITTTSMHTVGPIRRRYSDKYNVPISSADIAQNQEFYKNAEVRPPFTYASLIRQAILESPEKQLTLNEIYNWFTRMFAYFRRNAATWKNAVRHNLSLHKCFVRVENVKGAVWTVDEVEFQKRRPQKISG
Assay: PD-seq (MBP pull-down with sequencing); 20 mM Tris-HCl pH 7.5, 100 mM NaCl, 1.5 mM MgCl2, 0.4 uM protein, 0.1 uM dsDNA library, 30 min, room temperature, amylose pull-down; high values mean tight binding
Details: protein: recombinant; tags: His6-MBP; chain copies: 2; dsDNA, one strand shown
In all, about 16,000 sequences were measured (“rpm ratio (pull-down/input)”: median about 0.94, highest 2% from about 1.7 on). Shown is part of a subset that was picked to be rich in the highest values.

Example cases with answers are listed next.
GATGATTGTTCTCCCAGCTGATGAATTCGGTAAATCGAGTAAACAAATTTTCCTAATCTTTCTGTTCAAGCGCCATCTAC 1.22 RPM ratio (pull-down/input)
GATGATTGTTCTCCCAGCTGATGAATTTAGTCTCTCGAGTAAACAAATTTTCCTAATCTTTCTGTTCAAGCGCCATCTAC 0.934 RPM ratio (pull-down/input)
GATGATTGTTCTCCCAGCTGATGAATTGCATTCATCGAGTAAACAAATTTTCCTAATCTTTCTGTTCAAGCGCCATCTAC 1.46 RPM ratio (pull-down/input)
GATGATTGTTCTCCCAGCTGATGAATTATTACTGTCGAGTAAACAAATTTTCCTAATCTTTCTGTTCAAGCGCCATCTAC 1.17 RPM ratio (pull-down/input)
GATGATTGTTCTCCCAGCTGATGAATTCTGCCCGTCGAGTAAACAAATTTTCCTAATCTTTCTGTTCAAGCGCCATCTAC 0.815 RPM ratio (pull-down/input)
GATGATTGTTCTCCCAGCTGATGAATTGGACAAATCGAGTAAACAAATTTTCCTAATCTTTCTGTTCAAGCGCCATCTAC 1.05 RPM ratio (pull-down/input)
GATGATTGTTCTCCCAGCTGATGAATTGCTCGAGTCGAGTAAACAAATTTTCCTAATCTTTCTGTTCAAGCGCCATCTAC 0.899 RPM ratio (pull-down/input)
GATGATTGTTCTCCCAGCTGATGAATTGGGGACCTCGAGTAAACAAATTTTCCTAATCTTTCTGTTCAAGCGCCATCTAC 0.742 RPM ratio (pull-down/input)
GATGATTGTTCTCCCAGCTGATGAATTCAACATTTCGAGTAAACAAATTTTCCTAATCTTTCTGTTCAAGCGCCATCTAC 0.941 RPM ratio (pull-down/input)
GATGATTGTTCTCCCAGCTGATGAATTGTAAAAGTCGAGTAAACAAATTTTCCTAATCTTTCTGTTCAAGCGCCATCTAC 0.943 RPM ratio (pull-down/input)

// returns reported binding signal for input GATGATTGTTCTCCCAGCTGATGAATTGTCACCATCGAGTAAACAAATTTTCCTAATCTTTCTGTTCAAGCGCCATCTAC
1.13 RPM ratio (pull-down/input)

# repeat for GATGATTGTTCTCCCAGCTGATGAATTACTAATGTCGAGTAAACAAATTTTCCTAATCTTTCTGTTCAAGCGCCATCTAC
1.28 RPM ratio (pull-down/input)

# repeat for GATGATTGTTCTCCCAGCTGATGAATTATACTGCTCGAGTAAACAAATTTTCCTAATCTTTCTGTTCAAGCGCCATCTAC
0.951 RPM ratio (pull-down/input)

# repeat for GATGATTGTTCTCCCAGCTGATGAATTCGCGCAGTCGAGTAAACAAATTTTCCTAATCTTTCTGTTCAAGCGCCATCTAC
0.818 RPM ratio (pull-down/input)

# repeat for GATGATTGTTCTCCCAGCTGATGAATTGAAAGCCTCGAGTAAACAAATTTTCCTAATCTTTCTGTTCAAGCGCCATCTAC
0.795 RPM ratio (pull-down/input)

# repeat for GATGATTGTTCTCCCAGCTGATGAATTACTATTATCGAGTAAACAAATTTTCCTAATCTTTCTGTTCAAGCGCCATCTAC
1.87 RPM ratio (pull-down/input)

# repeat for GATGATTGTTCTCCCAGCTGATGAATTTGTCCTTTCGAGTAAACAAATTTTCCTAATCTTTCTGTTCAAGCGCCATCTAC
1.08 RPM ratio (pull-down/input)

# repeat for GATGATTGTTCTCCCAGCTGATGAATTGCGCCCCTCGAGTAAACAAATTTTCCTAATCTTTCTGTTCAAGCGCCATCTAC
0.966 RPM ratio (pull-down/input)

# repeat for GATGATTGTTCTCCCAGCTGATGAATTTCTCTATTCGAGTAAACAAATTTTCCTAATCTTTCTGTTCAAGCGCCATCTAC
0.936 RPM ratio (pull-down/input)

# repeat for GATGATTGTTCTCCCAGCTGATGAATTGCAACATTCGAGTAAACAAATTTTCCTAATCTTTCTGTTCAAGCGCCATCTAC
1.75 RPM ratio (pull-down/input)

# repeat for GATGATTGTTCTCCCAGCTGATGAATTAAGATCTTCGAGTAAACAAATTTTCCTAATCTTTCTGTTCAAGCGCCATCTAC
0.868 RPM ratio (pull-down/input)

# repeat for GATGATTGTTCTCCCAGCTGATGAATTGACATAATCGAGTAAACAAATTTTCCTAATCTTTCTGTTCAAGCGCCATCTAC
1.63 RPM ratio (pull-down/input)

# repeat for GATGATTGTTCTCCCAGCTGATGAATTAGACTTCTCGAGTAAACAAATTTTCCTAATCTTTCTGTTCAAGCGCCATCTAC
0.789 RPM ratio (pull-down/input)

# repeat for GATGATTGTTCTCCCAGCTGATGAATTGATGACATCGAGTAAACAAATTTTCCTAATCTTTCTGTTCAAGCGCCATCTAC
1.34 RPM ratio (pull-down/input)

# repeat for GATGATTGTTCTCCCAGCTGATGAATTAATTCCTTCGAGTAAACAAATTTTCCTAATCTTTCTGTTCAAGCGCCATCTAC
0.955 RPM ratio (pull-down/input)

# repeat for GATGATTGTTCTCCCAGCTGATGAATTGTTCCGATCGAGTAAACAAATTTTCCTAATCTTTCTGTTCAAGCGCCATCTAC
1.04 RPM ratio (pull-down/input)
